Listed below: Kd values for each entry.
Target: T1, GFP-9S library array, motif 4 ND N98I;D124R (synthetic construct, N98I;D124R)
T1 chain: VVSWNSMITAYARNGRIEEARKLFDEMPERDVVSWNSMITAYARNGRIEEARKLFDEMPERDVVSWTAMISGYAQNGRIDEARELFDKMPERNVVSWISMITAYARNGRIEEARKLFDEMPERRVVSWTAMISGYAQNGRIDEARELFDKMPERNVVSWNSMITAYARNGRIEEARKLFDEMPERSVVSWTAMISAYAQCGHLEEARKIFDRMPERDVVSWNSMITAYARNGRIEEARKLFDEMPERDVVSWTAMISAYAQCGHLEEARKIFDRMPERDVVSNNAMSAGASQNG
Assay: high-throughput RNA pulldown from lysate on Ni-NTA beads; HRP: 50 mM Tris pH 8, 150 mM NaCl, 1 mM beta-mercaptoethanol, 50 ug/ml BSA, 3 ug/ml yeast RNA, 0.5% heparin; ITC and FP: Tris pH 8, 200 mM KCl, 5% glycerol; MST: 50 mM Tris pH 8, 200 mM NaCl, 1 mM DTT, BSA, heparin, 0.05% Tween 20
Details: tags: N-terminal His-eGFP; label: 5' Cy5
ASSAY METRIC: Kd

BINDER: AUUAGACGUGA (ssRNA) [Cy5-rpoA-G]
VALUE OBSERVED: 97.3 nM

BINDER: AUUACACGUGA (ssRNA) [Cy5-rpoA]
VALUE OBSERVED: 86.4 nM
